Can you tell me pEC50 for the items I'm about to list?
Measured on: human somatostatin receptor subtype 2 (Homo sapiens)
Construct: expressed in transfected cells
Sequence (P30874 whole entry): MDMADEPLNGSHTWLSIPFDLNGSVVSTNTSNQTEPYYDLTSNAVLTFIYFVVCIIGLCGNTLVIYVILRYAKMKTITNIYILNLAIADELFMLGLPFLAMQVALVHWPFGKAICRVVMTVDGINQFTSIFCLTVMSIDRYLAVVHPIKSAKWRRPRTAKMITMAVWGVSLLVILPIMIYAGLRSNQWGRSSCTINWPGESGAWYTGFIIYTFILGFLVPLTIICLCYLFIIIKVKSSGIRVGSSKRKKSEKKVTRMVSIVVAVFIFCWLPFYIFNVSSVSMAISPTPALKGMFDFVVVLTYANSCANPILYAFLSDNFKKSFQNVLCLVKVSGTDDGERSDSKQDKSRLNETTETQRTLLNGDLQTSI
Test method notes: Functional cAMP assay for SSTR2 agonists (HTRF) in CHO-K1 cells
Assay type: cell-based
Condition parameters: CHO-K1 cells stably expressing human SST2, 20 min; read-out: hSST2 cAMP Avg EC50
Starred links: 1 amine or outer side, 2 acyl side, 3 side chain; linkers in the order of their positions; H or OH if unused. Non-standard residues stand in square brackets, D forms with d. Residues, ends and D or L forms follow the SMILES beside them. *: point of attachment. X1 = Cc1cc(F)cc(-c2cnc(NCCNC(=O)CCOCCC(=O)*)c(-c3nc4ccc(Cl)cc4[nH]3)c2N2CCC(N)CC2)c1; Dolaproine = CO[C@@H]([C@@H]1CCCN1)[C@@H](C)C(=O)O; Dil = CC[C@H](C)[C@H](NC)[C@@H](CC(=O)O)OC; PABC = O=C(OCc1ccc(N[*:1])cc1)[*:2]; X2 = C[C@@H](N*)[C@@H](O)c1ccccc1; Cit = NC(=O)NCCC[C@H](N)C(=O)O; NMeV = CN[C@H](C(=O)O)C(C)C
The scale used: pEC50 is minus the common logarithm of the concentration in molar units.

Asked: Give the measured pEC50 for CC[C@H](C)[C@@H]([C@@H](CC(=O)N1CCC[C@H]1[C@H](OC)[C@@H](C)C(=O)N[C@H](C)[C@@H](O)c1ccccc1)OC)N(C)C(=O)[C@@H](NC(=O)[C@H](C(C)C)N(C)C(=O)OCc1ccc(NC(=O)[C@H](CCCNC(N)=O)NC(=O)[C@@H](NC(=O)CCCC(=O)N(C)CC(=O)N(C)CC(=O)N(C)CC(=O)NCCNc2ncc(-c3cc(C)cc(F)c3)c(N3CCC(N)CC3)c2-c2nc3ccc(Cl)cc3[nH]2)C(C)C)c(O[C@@H]2O[C@H](C(=O)O)[C@@H](O)[C@H](O)[C@H]2O)c1)C(C)C
Given back: 9.60

Asked: Determine from records and report pEC50 for COc1cc2cc(c1Cl)N(C)C(=O)CC(OC(=O)[C@@H](C)N(C)C(=O)CCSSCCOCCOCCOCCOCCOCCOCCOCCOCCC(=O)NCCNc1ncc(-c3cc(C)cc(F)c3)c(N3CCC(N)CC3)c1-c1nc3ccc(Cl)cc3[nH]1)[C@]1(C)OC1[C@@H](C)C1C[C@@](O)(NC(=O)O1)[C@H](OC)/C=C/C=C(\C)C2 (stereo partly shown)
Given back: 9.44

Asked: Could you please provide reported pEC50 for CC[C@H](C)[C@@H]([C@@H](CC(=O)N1CCC[C@H]1[C@H](OC)[C@@H](C)C(=O)N[C@H](C)[C@@H](O)c1ccccc1)OC)N(C)C(=O)[C@@H](NC(=O)[C@H](C(C)C)N(C)C(=O)OCc1ccc(NC(=O)[C@H](CCCNC(N)=O)NC(=O)[C@@H](NC(=O)CN2CCN(CC(=O)O)CCN(CC(=O)NCCOCCC(=O)NCCNc3ncc(-c4cc(C)cc(F)c4)c(N4CCC(N)CC4)c3-c3nc4ccc(Cl)cc4[nH]3)CC2)C(C)C)cc1)C(C)C ? Thanks!
Given back: 9.77

Asked: Input CC[C@H](C)[C@@H]([C@@H](CC(=O)N1CCC[C@H]1[C@H](OC)[C@@H](C)C(=O)N[C@H](C)[C@@H](O)c1ccccc1)OC)N(C)C(=O)[C@@H](NC(=O)[C@H](C(C)C)N(C)C(=O)OCc1ccc(NC(=O)[C@H](CCCNC(N)=O)NC(=O)[C@@H](NC(=O)CCOCCOCCOCCOCCC(=O)NCCNc2ncc(-c3cc(C)cc(F)c3)c(N3CCC(N)CC3)c2-c2nc3ccc(Cl)cc3[nH]2)C(C)C)cc1C(=O)NCC(N)=O)C(C)C , output reported pEC50.
Given back: 9.80

Asked: For the compound CC[C@H](C)[C@@H]([C@@H](CC(=O)N1CCC[C@H]1[C@H](OC)[C@@H](C)C(=O)N[C@H](C)[C@@H](O)c1ccccc1)OC)N(C)C(=O)[C@@H](NC(=O)[C@H](C(C)C)N(C)C(=O)OCc1ccc(NC(=O)[C@H](CCCNC(N)=O)NC(=O)[C@@H](NC(=O)[C@H](CCC(=O)O)NC(=O)CCOCCC(=O)NCCNc2ncc(-c3cc(C)cc(F)c3)c(N3CCC(N)CC3)c2-c2nc3ccc(Cl)cc3[nH]2)C(C)C)cc1C(=O)NCCN)C(C)C , report pEC50.
Given back: 9.85

Asked: Recall and state the measured pEC50 for COc1cc2cc(c1Cl)N(C)C(=O)CC(OC(=O)[C@@H](C)N(C)C(=O)CCSSCCNC(=O)CNC(=O)C[C@@H](N)C(=O)NCCNc1ncc(-c3cc(C)cc(F)c3)c(N3CCC(N)CC3)c1-c1nc3ccc(Cl)cc3[nH]1)[C@]1(C)OC1[C@@H](C)C1C[C@@](O)(NC(=O)O1)[C@H](OC)/C=C/C=C(\C)C2 (stereo partly shown) .
Given back: 10.12

Asked: Supply measured pEC50 of CCC(C)C(C(CC(=O)N1CCCC1C(OC)C(C)C(=O)NC(C)C(O)c1ccccc1)OC)N(C)C(=O)C(NC(=O)C(C(C)C)N(C)C(=O)OCc1ccc(NC(=O)[C@H](CCCNC(N)=O)NC(=O)[C@@H](NC(=O)CCOCCOCCOCCOCCC(=O)NCCNc2ncc(-c3cc(C)cc(F)c3)c(N3CCC(NC)CC3)c2-c2nc3ccc(Cl)cc3[nH]2)C(C)C)cc1)C(C)C (stereo in doubt) in your reply.
Given back: 9.32

Asked: # return recorded pEC50 for input Cc1cc(F)cc(-c2cnc(NC3CCN(C(=O)CCOCCOCCOCCOCCOCCOCCNC(=O)CN4CCN5CCN6CCN(CC4)CC(=O)[O][In]([O]C(=O)C5)[O]C(=O)C6)CC3)c(-c3nc4cc(Cl)ccc4[nH]3)c2N2CCC(N)CC2)c1
Given back: 10.00

Asked: Kindly indicate its recorded pEC50. Item: CC[C@H](C)[C@@H]([C@@H](CC(=O)N1CCC[C@H]1[C@H](OC)[C@@H](C)C(=O)N[C@H](C)[C@@H](O)c1ccccc1)OC)N(C)C(=O)[C@@H](NC(=O)[C@H](C(C)C)N(C)C(=O)OCc1ccc(NC(=O)[C@H](CCCNC(N)=O)NC(=O)[C@@H](NC(=O)[C@@H](CCC(=O)O)NC(=O)CCOCCC(=O)NCCNc2ncc(-c3cc(C)cc(F)c3)c(N3CCC(N)CC3)c2-c2nc3ccc(Cl)cc3[nH]2)C(C)C)cc1)C(C)C [Compound 102] (X1-[dE]V[Cit][PABC][NMeV]V[Dil][Dolaproine]-X2)
Given back: 10.17

Asked: Determine its reported pEC50: Cc1cc(F)cc(-c2cnc(NCCOC(=O)NCCOCCOCCOCCOCCOCCNC(=O)CN3CCN(CC(=O)O)CCN(CC(=O)O)CCN(CC(=O)O)CC3)c(-c3nc4cc(Cl)ccc4[nH]3)c2N2CCC(N)CC2)c1 [Comp. 2, reference compound]
Given back: 9.77
